- EXPERIMENT_SUMMARY: counter assay for TAg ATPase ADP read-out – biochemical, ADP-Hunter, fluorescence, counter-screen (AID 2501);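 note: purified T antigen ATPase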
- ASSAY_CONTEXT: series mostly up to 100 µM
Screen size: about 2,200 compounds; about 1,200 (55%) were called active. The set was probably picked from earlier hits. The list shows a part of the results.
MEASURE: IC50

Some molecules with recorded IC50:
{"columns": ["MOLECULE", "MEASURE", "VALUE_REPORTED"],
 "data": [
  ["N#Cc1c(SCC(=O)Nc2nncs2)sc2c(O)cc(=O)[nH]c12", "IC50", "inactive"],
  ["O=C1/C(=C/c2ccco2)SC(=S)N1CCC(=O)N1CCCCC1CCO (stereo unspecified)", "IC50", "inactive"],
  ["Nc1ccc(-c2nc3c(Cl)cc(N)cc3[nH]2)cc1", "IC50", "4.91 µM (active)"],
  ["O=C(O)CN1C(=O)/C(=C\\C(Br)=C\\c2ccccc2)SC1=S", "IC50", "inactive"],
  ["COc1cc(C(C)=O)ccc1OCC(O)Cn1nc(C)c(C(C)=O)c1C (stereo unspecified)", "IC50", "49.1 µM (active)"],
  ["CSc1nc(Cl)cc(Nc2ccc(O)cc2)n1", "IC50", "11.3 µM (active)"],
  ["O=C1NC(=S)S/C1=C/c1ccc(N2CCOCC2)o1", "IC50", "18.9 µM (active)"],
  ["O=C(O)CN1C(=O)/C(=C/c2ccc(N3CCCCC3)o2)SC1=S", "IC50", "38.4 µM (active)"]
]}

Below are 3 molecules. Give each one its IC50.
1. O=C(CCc1ccc(O)c(O)c1)NNC(=S)Nc1ccc(Br)cc1Cl
2. O=[N+]([O-])c1c(NCCO)cc(Sc2nc3ccccc3s2)c2nonc12
3. CCCCn1c(N)c(N(CCOC)C(=O)c2cccc(S(=O)(=O)N(C)c3ccccc3)c2)c(=O)[nH]c1=O

Reply |
["19.5 µM (active)", "inactive", "inactive"]

---

- EXPERIMENT_SUMMARY: counter assay for TAg ATPase ADP read-out – biochemical, ADP-Hunter, fluorescence, counter-screen (AID 2501);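 note: purified T antigen ATPase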
- ASSAY_CONTEXT: series mostly up to 100 µM
The whole screen tested about 2,200 compounds, of which about 1,200 (55%) were called active. The limit is not given here; nearly all actives have IC50 up to about 92 µM. So high a share suggests a set chosen from earlier hits. The list shows a part of the results.
Tick one outcome: Y for active, N for inactive

Worked set:
{"columns": ["MOLECULE", "ANSWER_LABEL"],
 "data": [
  ["O=C1NC(=O)C(c2ccccc2[N+](=O)[O-])=C1Nc1ccc(O)c(Cl)c1", "Y"],
  ["Nc1ncc(N=Nc2cc(C(=O)O)ccc2Cl)s1", "Y"],
  ["CC1=C(C(=O)OCC(C)C)C(c2cccs2)NC(=S)N1 (stereo unspecified)", "N"],
  ["Nc1ccc2nc(CCCCCCc3nc4ccc(N)cc4[nH]3)[nH]c2c1", "Y"],
  ["Cc1cccc(C(=O)Nc2ccc(C(=O)N/N=C/c3ccc4c(c3)OCO4)cc2)c1", "N"]
]}

Okay, now this molecule:
Ask | Returns: the outcome recorded for `COC(=O)CN1C(=O)[C@@H]2[C@H](C1=O)[C@@H]1CC(C(=O)OC)=C[C@@H](C(=O)OC)[C@@H]3C1=C(C(=O)[C@]3(C)NC(=O)c1ccccc1)[C@@H]2C` in this assay.
Reply | N

---

- EXPERIMENT_SUMMARY: counter assay for TAg ATPase ADP read-out – biochemical, ADP-Hunter, fluorescence, counter-screen (AID 2501);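 note: purified T antigen ATPase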
- ASSAY_CONTEXT: series mostly up to 100 µM
Among all 2,200 compounds or so, about 1,200 (55%) were called active. The limit is not given here; nearly all actives have IC50 up to about 92 µM. So high a share suggests a set chosen from earlier hits. The list shows a part of the results.
Tick one outcome: true (1) for active, false (0) for inactive

Worked set:
{"columns": ["COMPOUND", "ANSWER_LABEL"],
 "data": [
  ["Oc1ccc(/C=N/NC(=S)Nc2cccnc2)cc1", "true (1)"],
  ["CCOC(=O)c1ccc(N/C=C/C(=O)C(C)(C)C)cc1", "false (0)"],
  ["COc1cc(/C=C(\\C#N)C(=O)N2CCCCC2)ccc1O", "true (1)"],
  ["CCC(=O)N1CCc2cc(S(=O)(=O)N(C)c3ccc(OC)cc3OC)ccc21", "false (0)"],
  ["Nc1c(O)cccc1C(=O)O", "true (1)"]
]}

Okay, now this compound:
Ask | Returns: the outcome recorded for COc1ccc(N2CSC3=C(C#N)C(c4cc(OC)c(OC)cc4OC)CC(=O)N3C2)c(OC)c1 (stereo not drawn) in this assay.
Reply | true (1)

---

- EXPERIMENT_SUMMARY: counter assay for TAg ATPase ADP read-out – biochemical, ADP-Hunter, fluorescence, counter-screen (AID 2501);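 note: purified T antigen ATPase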
- ASSAY_CONTEXT: series mostly up to 100 µM
Screen size: about 2,200 compounds; about 1,200 (55%) were called active. So high a share suggests a set chosen from earlier hits. The list shows a part of the results.
MEASURE: IC50

Some molecules with recorded IC50:
{"columns": ["MOLECULE", "IC50"],
 "data": [
  ["CCNc1ccc(Br)cc(C(=O)/C=C/c2ccc(Cl)cc2Cl)c1=O", "inactive"],
  ["O=C(O)CN1C(=O)/C(=C\\c2cc([N+](=O)[O-])ccc2OCc2ccccc2Cl)SC1=S", "inactive"],
  ["O=C(/C=C/c1ccc2ccccc2n1)N1CCN(S(=O)(=O)c2ccccc2F)CC1", "inactive"],
  ["COc1cc(/C=N/N(C)c2ccccc2)ccc1O", "8.84 µM (active)"],
  ["Oc1ccc(Nc2nc(NCC3CCCO3)c3ccccc3n2)cc1 (stereo not given)", "5.81 µM (active)"],
  ["COc1ccc2c(=O)c3c(=O)n(Cc4ccco4)c(-c4ccco4)nc3oc2c1", "inactive"],
  ["N=c1c2c(ncn1CCCO)Oc1ccc3ccccc3c1C2c1ccccc1 (stereo not given)", "inactive"],
  ["C=CCN1C(=O)/C(=C\\C(C)=C\\c2ccccc2)SC1=S", "inactive"]
]}

Below are 2 molecules. Give each one its IC50.
1. CSC1=NS(=O)(=O)c2c(C)nn(C)c2S1
2. Cc1c(N2C(=O)/C(=C\c3ccccc3O)SC2=S)c(=O)n(-c2ccccc2)n1C

Reply |
inactive
54.7 µM (active)

---

- EXPERIMENT_SUMMARY: counter assay for TAg ATPase ADP read-out – biochemical, ADP-Hunter, fluorescence, counter-screen (AID 2501);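 note: purified T antigen ATPase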
- ASSAY_CONTEXT: series mostly up to 100 µM
About 1,200 (55%) of roughly 2,200 compounds were called active. The set was probably picked from earlier hits. The list shows a part of the results.
MEASURE: IC50

{"columns": ["MOLECULE", "VALUE_REPORTED"],
 "data": [
  ["COC(=O)Cc1cc(=O)n(-c2nc3ccccc3s2)[nH]1", "inactive"],
  ["COc1cccc([C@H](O)Cn2cc(-c3ccc(CON=C(C)C)cc3)nn2)c1", "inactive"],
  ["CC(NC(=O)Nc1ccc(O)cc1)(C(F)(F)F)C(F)(F)F", "6.77 µM (active)"],
  ["COc1ccc(N2CCN(c3cc(=O)n(Cc4ccc(F)cc4)c(=O)[nH]3)CC2)cc1", "inactive"],
  ["COc1ccc(NS(=O)(=O)c2ccc(NS(=O)(=O)c3ccc(SC)cc3)cc2)c(OC)c1", "inactive"]
]}

Below are 2 molecules. Give each one its IC50.
1. CC(=O)Nc1ccc(OC(=O)C(CCS(C)(=O)=O)N2C(=O)c3ccccc3C2=O)cc1 (stereo unspecified)
2. O=C(CNS(=O)(=O)c1cccc(Cl)c1)OCc1csc(-c2ccccc2)n1

Reply |
1. 7.41 µM (active)
2. inactive

---

- EXPERIMENT_SUMMARY: counter assay for TAg ATPase ADP read-out – biochemical, ADP-Hunter, fluorescence, counter-screen (AID 2501);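 note: purified T antigen ATPase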
- ASSAY_CONTEXT: series mostly up to 100 µM
Out of some 2,200 compounds screened, about 1,200 (55%) were called active. So high a share suggests a set chosen from earlier hits. The list shows a part of the results.
MEASURE: IC50

Some molecules with recorded IC50:
{"columns": ["CHEMICAL_STRING", "IC50"],
 "data": [
  ["O=C(OCn1nnc2ccccc2c1=O)c1ccc(O)cc1", "inactive"],
  ["CCn1c(C)nc2cc(C(=O)N/N=C/c3ccc(OC)c(O)c3)ccc21", "3.58 µM (active)"],
  ["O=C(O)c1ccccc1-c1c2cc(I)c(=O)c(I)c-2oc2c(I)c(O)c(I)cc12", "inactive"],
  ["CN(C(=O)COC(=O)CNC(=O)CNC(=O)c1ccc(Cl)cc1Cl)c1ccccc1", "inactive"],
  ["CC(=O)N(C1=C(Cl)C(=O)c2ccccc2C1=O)c1ccc(C(=O)O)cc1", "inactive"]
]}

Below are 3 molecules. Give each one its IC50.
1. C/C(CC(=O)Nc1ccc(N(C)C)cc1)=N\NC(=O)c1ccc([N+](=O)[O-])cc1Cl
2. CN(C)c1ccc(N/C=C/C(=O)C(F)(F)F)cc1
3. Cc1nc2ccccc2c(=O)n1/N=C/c1cn(-c2ccccc2)nc1-c1cccs1

Reply |
1. 6.47 µM (active)
2. 8.86 µM (active)
3. inactive

Below are 2 molecules. Give each one its IC50.
1. O=c1c2ccccc2nc(COc2ccccc2)n1/N=C/c1ccc(O)c(O)c1
2. Cc1oc2c(O)c(O)ccc2c(=O)c1-c1cnn(-c2ccccc2)c1

Reply |
["12.1 µM (active)", "9.31 µM (active)"]
